- system name: hMRP4 (Homo sapiens)
- Sequence (O15439 whole entry): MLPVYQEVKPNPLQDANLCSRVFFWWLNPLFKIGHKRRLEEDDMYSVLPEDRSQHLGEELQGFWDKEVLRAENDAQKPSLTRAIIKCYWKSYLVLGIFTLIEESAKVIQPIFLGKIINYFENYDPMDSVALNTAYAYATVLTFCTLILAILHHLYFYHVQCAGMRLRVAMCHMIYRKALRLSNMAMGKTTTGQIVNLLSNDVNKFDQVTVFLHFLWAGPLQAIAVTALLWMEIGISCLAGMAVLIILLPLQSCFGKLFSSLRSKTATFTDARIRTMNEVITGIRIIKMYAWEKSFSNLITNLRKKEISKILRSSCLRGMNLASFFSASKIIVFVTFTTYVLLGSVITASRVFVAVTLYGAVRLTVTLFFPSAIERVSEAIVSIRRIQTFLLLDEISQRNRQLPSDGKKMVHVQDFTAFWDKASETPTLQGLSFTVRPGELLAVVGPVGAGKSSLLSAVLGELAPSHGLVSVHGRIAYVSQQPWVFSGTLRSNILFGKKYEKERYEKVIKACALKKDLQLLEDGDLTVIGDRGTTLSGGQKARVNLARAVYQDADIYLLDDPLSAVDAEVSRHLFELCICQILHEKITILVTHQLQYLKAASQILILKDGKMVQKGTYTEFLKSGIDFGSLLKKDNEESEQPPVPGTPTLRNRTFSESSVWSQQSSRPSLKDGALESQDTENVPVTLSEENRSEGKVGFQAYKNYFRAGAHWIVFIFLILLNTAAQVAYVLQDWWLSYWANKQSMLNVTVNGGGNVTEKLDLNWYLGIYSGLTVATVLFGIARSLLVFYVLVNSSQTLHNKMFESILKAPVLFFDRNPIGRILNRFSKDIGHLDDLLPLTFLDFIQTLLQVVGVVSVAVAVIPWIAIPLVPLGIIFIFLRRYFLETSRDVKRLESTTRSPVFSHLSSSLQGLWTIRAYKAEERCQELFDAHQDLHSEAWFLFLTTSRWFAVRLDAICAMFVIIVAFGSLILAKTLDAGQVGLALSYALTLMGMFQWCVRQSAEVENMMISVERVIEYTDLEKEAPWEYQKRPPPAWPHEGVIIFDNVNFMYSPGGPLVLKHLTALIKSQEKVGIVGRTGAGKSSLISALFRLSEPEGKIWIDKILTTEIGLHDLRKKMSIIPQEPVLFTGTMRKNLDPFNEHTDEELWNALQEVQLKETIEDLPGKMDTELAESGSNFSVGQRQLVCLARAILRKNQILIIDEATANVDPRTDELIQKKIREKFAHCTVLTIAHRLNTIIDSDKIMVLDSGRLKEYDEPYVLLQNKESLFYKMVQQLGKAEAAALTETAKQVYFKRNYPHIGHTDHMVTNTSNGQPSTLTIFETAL
measured quantity: Kd
Number first, unit second.

The value of Kd measured for the compound CCCCC[C@H](O)/C=C/[C@H]1[C@H](O)CC(=O)[C@@H]1CCCCCCC(=O)O [PGE1, prostaglandin E1] turned out to be 3.73 µM

###

- system name: hMRP5-Δ1-94 (Homo sapiens, UniProt O15440)
- Construct: The codon-optimized full-length human ABCC5 gene encoding the MRP5 protein (UniProt ID: O15440); 8xHis (C); 2xstrep (C); made in house; host or cells: HEK293F
- Sequence (O15440 95-1437 limits assumed, stated change not applied): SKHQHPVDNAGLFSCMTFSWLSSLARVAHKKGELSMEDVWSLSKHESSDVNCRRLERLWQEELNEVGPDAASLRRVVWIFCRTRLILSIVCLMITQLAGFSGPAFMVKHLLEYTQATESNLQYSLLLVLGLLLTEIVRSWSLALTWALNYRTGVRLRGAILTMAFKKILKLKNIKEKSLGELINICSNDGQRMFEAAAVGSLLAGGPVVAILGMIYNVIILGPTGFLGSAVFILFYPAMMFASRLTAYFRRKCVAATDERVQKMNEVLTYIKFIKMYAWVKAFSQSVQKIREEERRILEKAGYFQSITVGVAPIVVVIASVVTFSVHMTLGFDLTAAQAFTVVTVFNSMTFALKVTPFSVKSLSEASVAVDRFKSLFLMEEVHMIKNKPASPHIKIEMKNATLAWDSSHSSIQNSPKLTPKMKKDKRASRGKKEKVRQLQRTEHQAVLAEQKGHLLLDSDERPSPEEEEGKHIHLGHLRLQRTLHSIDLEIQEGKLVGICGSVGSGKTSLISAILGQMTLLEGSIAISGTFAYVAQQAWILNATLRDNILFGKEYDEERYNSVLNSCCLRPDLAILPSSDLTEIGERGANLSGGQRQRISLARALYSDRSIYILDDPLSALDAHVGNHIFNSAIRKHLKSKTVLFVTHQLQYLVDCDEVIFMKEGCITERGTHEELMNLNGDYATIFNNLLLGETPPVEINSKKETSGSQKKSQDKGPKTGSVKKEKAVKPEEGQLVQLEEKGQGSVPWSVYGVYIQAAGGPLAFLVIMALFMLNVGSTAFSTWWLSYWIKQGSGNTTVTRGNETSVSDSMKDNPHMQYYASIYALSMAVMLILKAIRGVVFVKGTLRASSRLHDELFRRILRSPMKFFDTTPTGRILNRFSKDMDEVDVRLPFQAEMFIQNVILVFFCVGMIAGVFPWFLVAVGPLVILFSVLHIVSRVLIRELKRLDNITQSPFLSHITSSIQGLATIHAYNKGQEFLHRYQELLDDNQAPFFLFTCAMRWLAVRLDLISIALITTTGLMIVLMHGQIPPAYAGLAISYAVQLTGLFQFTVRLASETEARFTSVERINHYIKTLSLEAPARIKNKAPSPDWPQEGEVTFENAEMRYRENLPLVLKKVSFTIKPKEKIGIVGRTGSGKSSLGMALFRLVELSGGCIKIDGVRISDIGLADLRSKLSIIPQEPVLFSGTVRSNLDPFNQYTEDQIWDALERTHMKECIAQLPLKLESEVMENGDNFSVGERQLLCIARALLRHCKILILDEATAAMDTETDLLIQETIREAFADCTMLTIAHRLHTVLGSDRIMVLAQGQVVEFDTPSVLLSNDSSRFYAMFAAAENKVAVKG
- procedure details: MST binding assay, hMRP5-Δ1-94
measured quantity: Kd
Number first, unit second.

Field Kd (system: hMRP5-Δ1-94 (Homo sapiens, UniProt O15440)) for entry "COc1cccc2c1C(=O)c1c(O)c3c(c(O)c1C2=O)C[C@@](O)(C(=O)CO)C[C@@H]3O[C@H]1C[C@H](N)[C@H](O)[C@H](C)O1" = 53.5 µM

###

- system name: hMRP5-Δ1-94 (Homo sapiens, UniProt O15440)
- Construct: The codon-optimized full-length human ABCC5 gene encoding the MRP5 protein (UniProt ID: O15440); 8xHis (C); 2xstrep (C); made in house; host or cells: HEK293F
- procedure details: MST binding assay, hMRP5-Δ1-94
- condition description: digitonin-purified hMRP5-Δ1-94-8xHis, HEPES buffer, RED-tris-NTA 2nd Generation dye, 15 min at room temperature, 3% LED/excitation power, medium MST power; mean ± SEM of three independent measurements; read-out: binding affinity (MST); KD value
measured quantity: Kd (µM)
Supply the numeric figure in µM, leaving out any unit text.

Field Kd (system: hMRP5-Δ1-94 (Homo sapiens, UniProt O15440)) for entry COc1cc2c(cc1OC)-c1c/c(=N\c3c(C)cc(C)cc3C)n(C)c(=O)n1CC2 [Trequinsin, trequinsin] = 42.4
